The measured values listed here are drawn from patent US7834005B2.

system: HCT-15; experiment: 60-cell-line screen: HCT-15 (Colon); assay type: cell-based; settings: read-out: LC50 (the source's name)
measured-parameter: CC50 (µM)
One number for each entry, in µM.

For the compound shown here, C=C1C[C@H]2C(O)Nc3cc(OCCCOc4cc5c(cc4OC)C(=O)N4CC(=C)C[C@H]4C(O)N5)c(OC)cc3C(=O)N2C1 (stereo partly shown) , give the reported CC50.
1
